System: NCI-H460
method: Proliferation assay (crystal violet), NCI-H460
Assay type: cell-based
assaySetup: Homo sapiens, 96 h; NCI-H460 cells; 4 days incubation; crystal violet staining; read-out: IC50 inhibition of proliferation, NCI-H460
Experimental: Cultivated tumor cells (cells were ordered from ATCC, except HeLa-MaTu and HeLa-MaTu-ADR, which were ordered from EPO-GmbH, Berlin) were plated at a density of 1000 to 5000 cells/well, depending on the growth rate of the respective cell line, in a 96-well multititer plate in 200 μL of their respective growth medium supplemented 10% fetal calf serum. […] Absorbtion was determined by photometry at a wavelength of 595 nm. […] The IC50 values were determined by means of a 4 parameter fit.
reportedEndpoint: IC50 (nM)

INSERT INTO results (compound, numericresult) VALUES
  ('Cc1nsc(Nc2cncc(C(F)(F)F)n2)c1C(=O)Nc1ccc(OCC2CCN(C(=O)OC(C)(C)C)C2)nc1 (stereo not shown)', 360),
  ('Cc1nsc(Nc2cncc(C(F)(F)F)n2)c1C(=O)Nc1ccc(OC2CCN(CC(F)(F)F)CC2)nc1', 150),
  ('Cc1nsc(Nc2ccc(C#N)cn2)c1C(=O)Nc1ccc(OC2CCCN(CC(F)(F)F)C2)nc1 (stereo not shown)', 360),
  ('COCCOc1ccc(NC(=O)c2c(C)nsc2Nc2nc3c(C(F)(F)F)cccc3s2)cc1F', 240);

Data origin: patent US20170334899A1
